- systemTested: JARID1B (Homo sapiens, UniProt Q9UGL1)
- Construct: The FLAG tagged full length JARID1B enzyme was expressed in Sf21 insect cells using FLAG-JARID1B baculoviruses; FLAG (N); made in house; host or cells: Sf21 insect cells (baculovirus)
- Sequence (Q9UGL1 whole entry): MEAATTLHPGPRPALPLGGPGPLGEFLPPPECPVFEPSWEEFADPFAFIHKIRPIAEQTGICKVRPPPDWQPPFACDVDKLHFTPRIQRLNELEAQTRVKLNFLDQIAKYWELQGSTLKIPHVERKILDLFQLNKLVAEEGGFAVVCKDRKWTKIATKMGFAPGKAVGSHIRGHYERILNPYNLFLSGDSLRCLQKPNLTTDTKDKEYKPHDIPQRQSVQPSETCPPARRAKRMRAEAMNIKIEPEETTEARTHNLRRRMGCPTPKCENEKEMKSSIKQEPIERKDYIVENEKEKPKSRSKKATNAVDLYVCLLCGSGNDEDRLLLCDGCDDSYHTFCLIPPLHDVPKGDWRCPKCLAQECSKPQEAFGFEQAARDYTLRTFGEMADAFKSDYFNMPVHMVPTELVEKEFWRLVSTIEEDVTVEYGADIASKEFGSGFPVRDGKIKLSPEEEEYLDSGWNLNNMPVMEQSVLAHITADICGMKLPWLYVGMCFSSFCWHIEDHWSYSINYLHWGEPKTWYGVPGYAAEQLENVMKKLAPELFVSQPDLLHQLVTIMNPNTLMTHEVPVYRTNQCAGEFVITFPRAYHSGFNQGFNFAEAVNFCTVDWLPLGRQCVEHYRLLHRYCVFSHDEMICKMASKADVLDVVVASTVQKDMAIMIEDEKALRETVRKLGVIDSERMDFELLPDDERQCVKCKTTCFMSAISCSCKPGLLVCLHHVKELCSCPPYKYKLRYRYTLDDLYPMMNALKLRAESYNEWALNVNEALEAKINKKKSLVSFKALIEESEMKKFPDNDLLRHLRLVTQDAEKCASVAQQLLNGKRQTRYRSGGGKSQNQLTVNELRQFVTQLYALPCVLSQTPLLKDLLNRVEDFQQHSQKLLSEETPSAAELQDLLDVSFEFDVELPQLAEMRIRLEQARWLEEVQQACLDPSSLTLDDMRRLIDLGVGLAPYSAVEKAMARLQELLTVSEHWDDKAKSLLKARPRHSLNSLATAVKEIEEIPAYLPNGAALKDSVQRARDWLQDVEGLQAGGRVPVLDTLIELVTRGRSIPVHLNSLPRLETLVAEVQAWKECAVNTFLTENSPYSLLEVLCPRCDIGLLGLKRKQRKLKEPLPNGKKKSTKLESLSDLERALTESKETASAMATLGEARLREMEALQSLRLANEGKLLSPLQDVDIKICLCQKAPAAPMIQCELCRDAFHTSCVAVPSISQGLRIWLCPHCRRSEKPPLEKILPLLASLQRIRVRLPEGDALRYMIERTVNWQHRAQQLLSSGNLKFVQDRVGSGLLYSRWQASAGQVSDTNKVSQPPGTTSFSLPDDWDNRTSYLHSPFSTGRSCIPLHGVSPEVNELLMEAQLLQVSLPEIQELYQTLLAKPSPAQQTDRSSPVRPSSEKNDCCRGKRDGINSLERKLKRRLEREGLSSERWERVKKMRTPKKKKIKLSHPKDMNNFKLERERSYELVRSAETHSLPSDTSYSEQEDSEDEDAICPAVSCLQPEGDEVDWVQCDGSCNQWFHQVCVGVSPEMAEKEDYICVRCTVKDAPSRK
- methodDescription: FLAG-JARID1B histone demethylase assay with AlphaScreen detection (HTS and dose response);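 further: FLAG-tagged JARID1B at 4 nM acting on a biotinylated H3K4me3 peptide, demethylation read by AlphaScreen luminescence, with hits checked against bio-H3K4me2 without enzyme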;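 further: compound tested at 20 µM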
- Assay type: biochemical
- runParameters: assay signal minus artifact signal
Below, each entry is listed with its recorded Assay − Artifact Signal (percent).
Please reply with the bare figure in % and do not write the unit itself.

In the examples that follow, each entry is paired with its recorded Assay − Artifact Signal (percent).
O=C(O[C@@H]1Cc2c(O)cc(O)cc2O[C@@H]1c1ccc(O)c(O)c1)c1cc(O)c(O)c(O)c1 [YU153085, EPICATECHIN MONOGALLATE, reference compound]
8.72
CC(C)(C#N)O[C@@H]1O[C@H](CO)[C@@H](O)[C@H](O)[C@H]1O [YU155312, LINAMARIN, reference compound]
99.23
COC(=O)NC1(C(F)(F)F)C(=O)NC(C)=C1C(=O)OC (stereo not drawn) [YU149831]
11.45
Cc1cc(C)nc(Nc2ccc(N(C)C)cc2)n1 [YU146020]
8.99
c1cc(CNc2ccc3c(c2)OCCO3)ccn1 [YU146041]
54.24
CCN(CC)C(=S)SSC(=S)N(CC)CC [YU035331, reference compound]
40.15

Lookup: Which value of Assay − Artifact Signal (percent) has been reported for O=C(NC(=S)NCc1ccccc1)C1CCCC1 [YU147054] in the records?
Found: 24.52

Lookup: Please give the measured Assay − Artifact Signal (percent) for this compound: Cc1ccc(-n2sc3ccccc3c2=O)cc1 [YU146026]
Found: 85.63

Lookup: Any idea what Assay − Artifact Signal (percent) was measured for CNC(C(=O)N(C)OC)C(C)C (stereo not drawn) [YU035100] ?
Found: 11.75
